The origin of these recorded values is ChEMBL document CHEMBL1671626.

Test system: Citrobacter freundii
Experiment: Antibacterial activity against ceftazidime-nonsusceptible Citrobacter freundii assessed as susceptible isolates by CLSI M7-A7 broth microdilution method
Format: functional
Just a reminder that ties go to Not fulfilled: only Activity strictly below 6% counts as Fulfilled.

Completed entries (count: 3):
CC(C)(O/N=C(\C(=O)N[C@@H]1C(=O)N2C(C(=O)[O-])=C(C[n+]3ccccc3)CS[C@H]12)c1csc(N)n1)C(=O)O
Fulfilled
CC1(C)S[C@@H]2[C@H](NC(=O)[C@H](N)c3ccccc3)C(=O)N2[C@H]1C(=O)O
Fulfilled
CCN1CCN(C(=O)N[C@@H](C(=O)N[C@@H]2C(=O)N3[C@@H]2SC(C)(C)[C@@H]3C(=O)O)c2ccccc2)C(=O)C1=O
Not fulfilled

// query Determine if C[C@@H](O)[C@H]1C(=O)N2C(C(=O)O)=C(SCCNC=N)C[C@H]12 [IMIPENEM ANHYDROUS] shows Activity strictly lower than 6%.
// result Not fulfilled

// query Please give the result for C[C@H]1COc2c(N3CCN(C)CC3)c(F)cc3c(=O)c(C(=O)O)cn1c23.C[C@H]1COc2c(N3CCN(C)CC3)c(F)cc3c(=O)c(C(=O)O)cn1c23.O too.
// result Not fulfilled
